# Target: Human immunodeficiency virus type 1 reverse transcriptase (Human immunodeficiency virus 1, UniProt Q72547)
# Assay Details: Inhibition of wild-type HIV1 reverse transcriptase
Experimental Endpoint: pIC50
Note: pIC50 values are expressed as the negative base-10 logarithm of concentration in M.

Exercise: For O=C1c2ccccc2C(=O)N1CCOC(=S)N(C(=O)c1cccnc1Cl)c1ccc(Br)cc1 , what is its reported pIC50?
Solution: 6.15

Exercise: For Cc1ccc2c(c1)C(=O)N(CCOC(=S)N(C(=O)c1ccc(Cl)cc1)c1ccc([N+](=O)[O-])cc1)C2=O , what is its reported pIC50?
Solution: 6.52

====

Please provide measured EC50 for the entries that follow.
# System: Human immunodeficiency virus 1
# Assay Details: Antiviral activity against HIV1 3B infected in human MT4 cells assessed as inhibition of virus-induced cytopathogenicity by MTT assay
# Type: functional, organism-based
# Measurement Parameters: Human immunodeficiency virus 1, 3B
Answer with a number only, understood to be in nM.

Exercise: For O=C1c2ccccc2C(=O)N1CCOC(=S)N(C(=O)c1cccnc1Cl)c1ccc(Cl)cc1 , what is its reported EC50?
Solution: 5

Exercise: For O=C1c2ccccc2C(=O)N1CCOC(=S)N(C(=O)c1ccccc1)c1ccc(Cl)cc1 , what is its reported EC50?
Solution: 100

Exercise: For O=C1c2ccccc2C(=O)N1CCOC(=S)N(C(=O)c1c(Cl)cccc1Cl)c1ccc(Cl)cc1 , what is its reported EC50?
Solution: 5600

Exercise: For Cc1ccc(N(C(=O)c2ccc(Br)c(C)c2)C(=S)OCCN2C(=O)c3ccccc3C2=O)cc1 , what is its reported EC50?
Solution: 50

Exercise: For O=C1c2ccccc2C(=O)N1CCOC(=S)N(C(=O)c1ccco1)c1ccc(Cl)cc1Cl , what is its reported EC50?
Solution: 2600

Exercise: For COc1cccc(OC)c1C(=O)N(C(=S)OCCN1C(=O)c2ccccc2C1=O)c1ccc(C)cc1 , what is its reported EC50?
Solution: 22000

Exercise: For Cc1ccc(N(C(=O)c2cccc([N+](=O)[O-])c2)C(=S)OCCN2C(=O)c3ccccc3C2=O)cc1 , what is its reported EC50?
Solution: 20

Exercise: For Cc1ccc(N(C(=O)c2cccc(C)c2)C(=S)OCCN2C(=O)c3ccccc3C2=O)cc1 , what is its reported EC50?
Solution: 40

Exercise: For O=C1c2ccccc2C(=O)N1CCOC(=S)N(C(=O)c1ccc(Cl)c([N+](=O)[O-])c1)c1ccccc1 , what is its reported EC50?
Solution: 350

Exercise: For Cc1cccc2c1C(=O)N(CCOC(=S)N(C(=O)c1cccc([N+](=O)[O-])c1)c1ccc(Cl)cc1)C2=O , what is its reported EC50?
Solution: 30

Exercise: For O=C1c2ccccc2C(=O)N1CCOC(=S)N(C(=O)c1ccc(F)c(F)c1)c1ccc(Cl)cc1 , what is its reported EC50?
Solution: 8

Exercise: For Cc1ccccc1C(=O)N(C(=S)OCCN1C(=O)c2ccccc2C1=O)c1ccc(Cl)cc1 , what is its reported EC50?
Solution: 40

Exercise: For O=C1c2ccccc2C(=O)N1CCOC(=S)N(C(=O)c1cccc([N+](=O)[O-])c1)c1c(Cl)cccc1Cl , what is its reported EC50?
Solution: 17000

Exercise: For Cc1ccc(N(C(=O)c2cc(F)cc(F)c2)C(=S)OCCN2C(=O)c3ccccc3C2=O)cc1 , what is its reported EC50?
Solution: 50

Exercise: For COc1cccc(OC)c1C(=O)N(C(=S)OCCN1C(=O)c2ccccc2C1=O)c1ccc(Cl)cc1 , what is its reported EC50?
Solution: 400

Exercise: For Cc1ccc(N(C(=O)c2c(F)cccc2F)C(=S)OCCN2C(=O)c3ccccc3C2=O)cc1 , what is its reported EC50?
Solution: 1000

Exercise: For Cc1ccc(N(C(=O)c2ccc(Cl)cc2Cl)C(=S)OCCN2C(=O)c3ccccc3C2=O)cc1 , what is its reported EC50?
Solution: 300

Exercise: For O=C1c2ccccc2C(=O)N1CCOC(=S)N(C(=O)c1cc(Cl)cc(Cl)c1)c1ccc(Cl)cc1 , what is its reported EC50?
Solution: 8

Exercise: For Cc1ccc(N(C(=O)c2ccccc2C)C(=S)OCCN2C(=O)c3ccccc3C2=O)cc1 , what is its reported EC50?
Solution: 200

Exercise: For O=C1c2ccccc2C(=O)N1CCOC(=S)N(C(=O)c1ccc(Cl)cc1Cl)c1ccc(Cl)cc1 , what is its reported EC50?
Solution: 30

Exercise: For O=C1c2ccccc2C(=O)N1CCOC(=S)N(C(=O)c1ccco1)c1ccc(Cl)c(Cl)c1 , what is its reported EC50?
Solution: 690

Exercise: For O=C1c2ccccc2C(=O)N1CCOC(=S)N(C(=O)c1cccnc1Cl)c1ccc(Br)cc1 , what is its reported EC50?
Solution: 200

Exercise: For Cc1ccc2c(c1)C(=O)N(CCOC(=S)N(C(=O)c1cccnc1Cl)c1ccc(Cl)cc1)C2=O , what is its reported EC50?
Solution: 60

Exercise: For O=C1c2ccccc2C(=O)N1CCOC(=S)N(C(=O)c1ccc(Br)cc1)c1ccc(Br)cc1 , what is its reported EC50?
Solution: 35

Exercise: For Cc1ccc(N(C(=O)c2ccc(Cl)c([N+](=O)[O-])c2)C(=S)OCCN2C(=O)c3ccccc3C2=O)cc1 , what is its reported EC50?
Solution: 60

Exercise: For Cc1ccc(N(C(=O)c2ccc([N+](=O)[O-])cc2Cl)C(=S)OCCN2C(=O)c3ccccc3C2=O)cc1 , what is its reported EC50?
Solution: 90

Exercise: For Cc1ccc(N(C(=O)c2ccc(F)cc2F)C(=S)OCCN2C(=O)c3ccccc3C2=O)cc1 , what is its reported EC50?
Solution: 30

Exercise: For O=C1c2ccccc2C(=O)N1CCOC(=S)N(C(=O)c1cc2ccccc2s1)c1ccc(Cl)cc1 , what is its reported EC50?
Solution: 200

Exercise: For CCCCCOc1ccc(C(=O)N(C(=S)OCCN2C(=O)c3ccccc3C2=O)c2ccc(F)cc2)cc1 , what is its reported EC50?
Solution: 8500

Exercise: For Cc1ccc(N(C(=O)c2ccccc2[N+](=O)[O-])C(=S)OCCN2C(=O)c3ccccc3C2=O)cc1 , what is its reported EC50?
Solution: 400

Exercise: For O=C1c2ccccc2C(=O)N1CCOC(=S)N(C(=O)c1ccccc1[N+](=O)[O-])c1ccc(Cl)cc1 , what is its reported EC50?
Solution: 70

Exercise: For Cc1ccc2c(c1)C(=O)N(CCOC(=S)N(C(=O)c1cccs1)c1ccc(Cl)cc1)C2=O , what is its reported EC50?
Solution: 20

Exercise: For O=C1c2ccccc2C(=O)N1CCOC(=S)N(C(=O)c1c(F)cccc1F)c1ccc(Cl)cc1 , what is its reported EC50?
Solution: 20

Exercise: For CC(COC(=S)N(C(=O)c1cccc([N+](=O)[O-])c1)c1ccc(Cl)cc1)N1C(=O)c2ccccc2C1=O (racemic) , what is its reported EC50?
Solution: 50
